Reference for the values: the supplement of paper PMC10567573

B1: OAS1 (parent)
chain: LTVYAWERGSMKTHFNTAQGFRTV

- Variants of: B1
- assayNotes: protein stability index of a GFP-peptide fusion (GPS, HEK-293T) (PSI 1-6); higher = more stable;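 note: lentivirally expressed fusions sorted by FACS into six bins by GFP to DsRed ratio, PSI derived from sequencing read proportions per bin multiplied by bin number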
- conditionDetails: c terminus: a fixed tail appended
Each entry below lists one item and its recorded protein stability index value.
measuredMetric: protein stability index

inputSequence	recordedMeasurement
LTVYAEERGSMKTHFNTAQGFRTV [W6E]	2.23
LTVYAWERISMKTHFNTAQGFRTV [G9I]	1.86
LTVYAWERWSMKTHFNTAQGFRTV [G9W]	2.69
LTVYAWERGSHKTHFNTAQGFRTV [M11H]	2.31
LTVYAWERGSMKTHFNTAQGFYTV [R22Y]	3.17
LTVYAWERGSMKTHFETAQGFRTV [N16E]	2.21
LTVYAWERGSMVTHFNTAQGFRTV [K12V]	2.45
LTVYAWERGSMKSHFNTAQGFRTV [T13S]	2.01
LTCYAWERGSMKTHFNTAQGFRTV [V3C]	2.02
LTVYAWERGSMKTHFNTAQRFRTV [G20R]	3.81
LTVYAWERGSMKTHFNTAQGFITV [R22I]	1.73
LTVQAWERGSMKTHFNTAQGFRTV [Y4Q]	1.86
LTVYAWERGSMKTHLNTAQGFRTV [F15L]	2.21
LTVYAWERGSMKTHINTAQGFRTV [F15I]	2.88
LTVYAWARGSMKTHFNTAQGFRTV [E7A]	3.15
CTVYAWERGSMKTHFNTAQGFRTV [L1C]	1.74
LTVYAWKRGSMKTHFNTAQGFRTV [E7K]	2.28
LTVYAWERGSMKTHFNTAQGFTTV [R22T]	2.44
LTVYAWERGSFKTHFNTAQGFRTV [M11F]	2.49
LTVYAWEFGSMKTHFNTAQGFRTV [R8F]	2.26
LTVYAWERGSAKTHFNTAQGFRTV [M11A]	1.75
LYVYAWERGSMKTHFNTAQGFRTV [T2Y]	2.45
LTVYAWERGSMKTHFNTAQGGRTV [F21G]	1.4
LTVYAWERGSMYTHFNTAQGFRTV [K12Y]	2.49
LTVYAWERFSMKTHFNTAQGFRTV [G9F]	3.19
LTVTAWERGSMKTHFNTAQGFRTV [Y4T]	1.59
YTVYAWERGSMKTHFNTAQGFRTV [L1Y]	2.19
LTVYAWGRGSMKTHFNTAQGFRTV [E7G]	2.18
LTVYAWERGSMKTHFRTAQGFRTV [N16R]	1.53
LTVYAWERGSMKRHFNTAQGFRTV [T13R]	1.64
LTVYAWMRGSMKTHFNTAQGFRTV [E7M]	3.48
LTVYAWERCSMKTHFNTAQGFRTV [G9C]	3.73
LTVYAWERGSMKTHHNTAQGFRTV [F15H]	2.39
LTVYAWERGSMKTHFNTAQGFRTQ [V24Q]	2.06
LTVYYWERGSMKTHFNTAQGFRTV [A5Y]	3.25
HTVYAWERGSMKTHFNTAQGFRTV [L1H]	2.13
LTIYAWERGSMKTHFNTAQGFRTV [V3I]	3.14
LTVYAWERGSMKTHFNTAQHFRTV [G20H]	2.56
LTVYAWERGSMKTHFNTASGFRTV [Q19S]	2.63
LTVYAWERGSMKTHFNYAQGFRTV [T17Y]	2.64
LTVYAWERGSMKTHFNTAQGVRTV [F21V]	1.82
LTVYAWERMSMKTHFNTAQGFRTV [G9M]	2.85
LTVYAWERGYMKTHFNTAQGFRTV [S10Y]	3.69
LTVYAWEIGSMKTHFNTAQGFRTV [R8I]	2.15
LTVYADERGSMKTHFNTAQGFRTV [W6D]	1.87
LTVYAWERGSMKVHFNTAQGFRTV [T13V]	2.68
LTVYAWERGSMKTHFNWAQGFRTV [T17W]	2.1
LAVYAWERGSMKTHFNTAQGFRTV [T2A]	2.03
LTVYAWERGSMKTHFNFAQGFRTV [T17F]	2.25
LTVYATERGSMKTHFNTAQGFRTV [W6T]	2.45
LTVGAWERGSMKTHFNTAQGFRTV [Y4G]	2.76
LTVYAWERGSMKTHFNTAQGFRTA [V24A]	2.04
LTVYAWERGSMKTHFNTAQGERTV [F21E]	2.1
LTVYAWERGPMKTHFNTAQGFRTV [S10P]	1.54
LTVYAWERGSMKTHVNTAQGFRTV [F15V]	2.08
LTVYAWERGSMKTHFNTARGFRTV [Q19R]	2.22
LTVYAWERGSMFTHFNTAQGFRTV [K12F]	1.8
LTVYAWERGSMKTHFNTAQGFRTL [V24L]	1.68
LTRYAWERGSMKTHFNTAQGFRTV [V3R]	2.46
LTVYAWYRGSMKTHFNTAQGFRTV [E7Y]	1.92
LVVYAWERGSMKTHFNTAQGFRTV [T2V]	2.23
LTVYARERGSMKTHFNTAQGFRTV [W6R]	1.44
LTVYAWERHSMKTHFNTAQGFRTV [G9H]	1.61
LTVYAWERGSMKTHWNTAQGFRTV [F15W]	2.62
LTVYAVERGSMKTHFNTAQGFRTV [W6V]	2.29
LTVYAWERGSMKTHFNTAYGFRTV [Q19Y]	3.25
